FYI, the data here is from patent US8501683B2.

Assay: Cytostatic/cytotoxic effect, MTT (MTS) assay in Huh 9-13 cells
Format: cell-based
Conditions: human, Huh 9-13 cells containing the HCV genotype 1b Con1 replicon, metabolic activity reduced to 50% of untreated cells
Square brackets hold non-standard residues; d marks the D form. Peptide text beside a SMILES is read from it. MeBmt = C/C=C/C[C@@H](C)[C@@H](O)[C@H](NC)C(=O)O; NEtVal = CCN[C@H](C(=O)O)C(C)C; NMeL = CN[C@@H](CC(C)C)C(=O)O; NMeV = CN[C@H](C(=O)O)C(C)C; dHiv = CC(C)[C@@H](O)C(=O)O; dNMeA = CN[C@H](C)C(=O)O; Abu = CC[C@H](N)C(=O)O
Quick list: CC50 per entry.
readout: CC50 (µM)

1. C/C=C/C[C@@H](C)[C@@H](O)[C@H]1C(=O)N[C@@H](CC)C(=O)N(C)[C@H](C)C(=O)N(CC)[C@@H](C(C)C)C(=O)N[C@@H](CC(C)C)C(=O)N(C)[C@@H](CC(C)C)C(=O)N[C@@H](C)C(=O)O[C@H](C(C)C)C(=O)N(C)[C@@H](CC(C)C)C(=O)N[C@@H](CC(C)C)C(=O)N(C)[C@@H](C(C)C)C(=O)N1C [(Ib)] (cyclo(A[dHiv][NMeL]L[NMeV][MeBmt][Abu][dNMeA][NEtVal]L[NMeL]))	52.3
2. C/C=C/C[C@@H](C)[C@@H](O)[C@H]1C(=O)N[C@@H](C(C)C)C(=O)N(C)[C@H](C)C(=O)N(C)[C@@H](C(C)C)C(=O)N[C@@H]([C@@H](C)CC)C(=O)N(C)[C@@H](CC(C)C)C(=O)NCC(=O)O[C@H](C(C)C)C(=O)N(C)[C@@H](CC(C)C)C(=O)N[C@@H](CC(C)C)C(=O)N(C)[C@@H](C(C)C)C(=O)N1C [(Ic)] (cyclo(G[dHiv][NMeL]L[NMeV][MeBmt]V[dNMeA][NMeV]I[NMeL]))	86.9
3. C/C=C/C[C@@H](C)[C@@H](O)[C@H]1C(=O)N[C@@H](CC)C(=O)N(C)[C@H](C)C(=O)N(C)[C@@H](C(C)C)C(=O)N[C@@H](CC(C)C)C(=O)N(C)[C@@H](CC(C)C)C(=O)NCC(=O)O[C@H](C(C)C)C(=O)N(C)[C@@H](CC(C)C)C(=O)N[C@@H](CC(C)C)C(=O)N(C)[C@@H](C(C)C)C(=O)N1C [(Ia)] (cyclo([Abu][dNMeA][NMeV]L[NMeL]G[dHiv][NMeL]L[NMeV][MeBmt]))	60.1
